Molecular target: HLA-A*29:02
Assay: IEDB peptide-MHC binding, purified MHC/competitive/radioactivity; filed as Kd, often an IC50 or EC50 that approximates it; bounds were set here for any values at or beyond the usual limits of such assays
Details: source organism: Lymphocytic choriomeningitis virus (strain Armstrong)
pKd: −log10 of the molar value.

sequence code	pKd
GPDIYKGVY	5.61

* * *

Molecular target: HLA-A*02:01
Experiment: IEDB peptide-MHC binding, purified MHC/competitive/fluorescence; filed as Kd, often an IC50 or EC50 that approximates it; bounds were set here for any values at or beyond the usual limits of such assays
Conditions: source organism: Vibrio cholerae 2740-80
pKd: −log10 of the molar value.
metric: pKd

sequence code	metric	value
VQPWLMVDV	pKd	≤ 4.70

* * *

Target: HLA-B*07:02
Test: IEDB peptide-MHC binding, purified MHC/direct/fluorescence; filed as Kd, often an IC50 or EC50 that approximates it; bounds were set here for any values at or beyond the usual limits of such assays
Conditions: source organism: Escherichia coli
pKd: −log10 of the molar value.
metric: pKd

sequence code	test target	value
TVANNPDDK	HLA-B*07:02	≤ 4.70

* * *

Biological target: HLA-A*02:06
Assay: IEDB peptide-MHC binding, purified MHC/competitive/fluorescence; filed as Kd, often an IC50 or EC50 that approximates it; bounds were set here for any values at or beyond the usual limits of such assays
Conditions: source organism: Haemophilus influenzae
metric: Kd

sequence code	test target	metric	value
YINMAWNLV	HLA-A*02:06	Kd	≤ 0.1 nM

* * *

Biological target: HLA-B*18:01
Assay: IEDB peptide-MHC binding, purified MHC/direct/fluorescence; filed as Kd, often an IC50 or EC50 that approximates it; bounds were set here for any values at or beyond the usual limits of such assays
Settings: source organism: Vibrio cholerae

sequence code	Kd / nM
FPLTQRDVL	1900

* * *

Biological target: HLA-A*31:01
Test: IEDB peptide-MHC binding, purified MHC/competitive/radioactivity; filed as Kd, often an IC50 or EC50 that approximates it; bounds were set here for any values at or beyond the usual limits of such assays
Details: source organism: Vaccinia virus Copenhagen
metric: Kd (nM)

sequence code	metric	value
STSPTRTWK	Kd	36.2
KLKHRDGFTK	Kd	726
FLIVSLCPT	Kd	3230
KSVLDIISSK	Kd	152

* * *

Target: HLA-A*23:01
Test: IEDB peptide-MHC binding, purified MHC/competitive/radioactivity; filed as Kd, often an IC50 or EC50 that approximates it; bounds were set here for any values at or beyond the usual limits of such assays
Conditions: source organism: Dengue virus 2 Peru/IQT2913/1996
pKd: −log10 of the molar value.

sequence code	pKd
EYVKTRTNDW	5.47

* * *

Molecular target: HLA-B*07:02
Assay: IEDB peptide-MHC binding, purified MHC/direct/fluorescence; filed as Kd, often an IC50 or EC50 that approximates it; bounds were set here for any values at or beyond the usual limits of such assays
Details: source organism: Orthohantavirus andesense
metric: Kd

sequence code	test target	value
YRRKLTNPA	HLA-B*07:02	≥ 20 µM

* * *

Target: HLA-A*11:01
Test: IEDB peptide-MHC binding, purified MHC/competitive/radioactivity; filed as Kd, often an IC50 or EC50 that approximates it; bounds were set here for any values at or beyond the usual limits of such assays
Conditions: source organism: Dengue virus 1 Singapore/S275/1990
pKd: −log10 of the molar value.
metric: pKd

sequence code	metric	value
VQTAPGTFK	pKd	6.89

* * *

Target: HLA-A*02:12
Experiment: IEDB peptide-MHC binding, purified MHC/direct/fluorescence; filed as Kd, often an IC50 or EC50 that approximates it; bounds were set here for any values at or beyond the usual limits of such assays
Details: source organism: Vibrio vulnificus CMCP6
metric: Kd (nM)

sequence code	test target	metric	value
MSDWGHITV	HLA-A*02:12	Kd	56

* * *

Biological target: HLA-A*30:02
Assay: IEDB peptide-MHC binding, purified MHC/competitive/radioactivity; filed as Kd, often an IC50 or EC50 that approximates it; bounds were set here for any values at or beyond the usual limits of such assays
Settings: source organism: SARS coronavirus Tor2
pKd: −log10 of the molar value.
Criterion: pKd meeting or surpassing 7. Met: TRUE. Not met: FALSE.

sequence code	test target	label class
CKDGHVETFY	HLA-A*30:02	FALSE
KSAQCFKMFY	HLA-A*30:02	FALSE
VFQSATKII	HLA-A*30:02	FALSE
MYIFFASFYY	HLA-A*30:02	TRUE
KSFEIDKGIY	HLA-A*30:02	TRUE
LTDDMIAAY	HLA-A*30:02	FALSE
FSGALDTTSY	HLA-A*30:02	FALSE
FDEISMATNY	HLA-A*30:02	FALSE
FYFTNDVSFL	HLA-A*30:02	FALSE
HFAIGLALYY	HLA-A*30:02	FALSE
LTNDNTSRY	HLA-A*30:02	TRUE
RYNTRGNTY	HLA-A*30:02	TRUE
RVDFCGKGY	HLA-A*30:02	TRUE
LLEKCDLQNY	HLA-A*30:02	FALSE
DNAFNCTFEY	HLA-A*30:02	FALSE
LWLLWPVTL	HLA-A*30:02	FALSE

* * *

Biological target: HLA-B*27:20
Assay: IEDB peptide-MHC binding, purified MHC/competitive/fluorescence; filed as Kd, often an IC50 or EC50 that approximates it; bounds were set here for any values at or beyond the usual limits of such assays
Details: source organism: Pan troglodytes

sequence code	units	Kd
RRHWGGNVL	nM	0.2

* * *

Biological target: HLA-A*03:01
Assay: IEDB peptide-MHC binding, purified MHC/direct/fluorescence; filed as Kd, often an IC50 or EC50 that approximates it; bounds were set here for any values at or beyond the usual limits of such assays
Conditions: source organism: Brucella suis 1330

sequence code	Kd
QAHMGIAGL	≥ 20 µM

* * *

Molecular target: HLA-A*24:02
Assay: IEDB peptide-MHC binding, purified MHC/competitive/fluorescence; bounds were set here for any values at or beyond the usual limits of such assays
Conditions: source organism: Zaire ebolavirus
pIC50: −log10 of the molar value.
# pIC50 annotations
metric: pIC50

sequence code	censor symbol	value
DGQQFYWPV	=	4.21
DTTIGEWAF	=	4.59
SLEEEYPPW	≤	3.75
TNFLIKFLL	=	5.49
GYYSTTIRY	=	6.08
KEGAFFLYD	=	4.34
AAIGLAWIP	≤	3.88
ESGAVKYLE	≤	3.68
RLMRTNFLI	=	7.67
HILRSQGPF	=	5.24
NHKNKFMAI	=	4.71

* * *

Target: HLA-A*02:01
Experiment: IEDB peptide-MHC binding, purified MHC/direct/fluorescence; filed as Kd, often an IC50 or EC50 that approximates it; bounds were set here for any values at or beyond the usual limits of such assays
Conditions: source organism: Salmonella enterica subsp. enterica serovar Virchow

sequence code	Kd
CTWPEASRY	≥ 20 µM

* * *

# pKd annotations
Target: HLA-B*44:03
Test: IEDB peptide-MHC binding, purified MHC/competitive/radioactivity; filed as Kd, often an IC50 or EC50 that approximates it; bounds were set here for any values at or beyond the usual limits of such assays
Conditions: source organism: SARS coronavirus Tor2
pKd: −log10 of the molar value.

sequence code	censor symbol	pKd
EEVAIILASF	=	7.72
SELRPDTRY	=	6.15
LEVKFNAPA	=	5.22
SEAFLIGANY	=	8.43
MDGIQYGRSG	≤	4.23
NEKVAGFAKF	=	6.28
GDYFVLTSHT	≤	4.65
CELYHYQECV	=	5.38
SEFSSLPSYA	=	7.88
MELPTGVHA	=	4.86
FERDISNVPF	=	6.20
NDFVSDADST	≤	4.15
MEVQSLAMST	=	6.02

* * *

Biological target: HLA-B*15:42
Assay: IEDB peptide-MHC binding, purified MHC/competitive/fluorescence; filed as Kd, often an IC50 or EC50 that approximates it; bounds were set here for any values at or beyond the usual limits of such assays
Conditions: source organism: Toxoplasma gondii
pKd: −log10 of the molar value.
metric: pKd

sequence code	test target	value
MTMLIKAFK	HLA-B*15:42	≤ 5.30

* * *

Target: HLA-C*15:02
Assay: IEDB peptide-MHC binding, purified MHC/direct/fluorescence; filed as Kd, often an IC50 or EC50 that approximates it; bounds were set here for any values at or beyond the usual limits of such assays
Conditions: source organism: Salmonella enterica subsp. enterica serovar Paratyphi B str. SPB7

sequence code	test target	Kd
SVFTGLLPF	HLA-C*15:02	12.3 µM

* * *

Biological target: HLA-B*27:20
Assay: IEDB peptide-MHC binding, purified MHC/competitive/fluorescence; filed as Kd, often an IC50 or EC50 that approximates it; bounds were set here for any values at or beyond the usual limits of such assays
Conditions: source organism: Burkholderia mallei SAVP1
pKd: −log10 of the molar value.
metric: pKd

sequence code	value
RQYERYTAL	9.52
